Assay: Pharmacokinetic experiment (blood concentration by HPLC)
Format: in vivo, mice
Settings: male, mouse, blood, other: injection, 20 mg/kg, Injection, time 40 min, read-out: blood concentration, mouse-2
reported-metric: concentration at 40 min (ng/mL)
Value expressed in ng/mL; do not type the unit.

Tell us which concentration at 40 min value is on record for CO/N=C(\C(=O)NC1C(=O)N2C(C(=O)O)=C(Sc3cc(N)nc(N)n3)CSC12)c1csc(N)n1 (stereo not shown)
7300

###

Reported values of MIC for individual entries
Tested on: S. pneumoniae
Test: MIC against standard strains (agar dilution)
Type: cell-based
Conditions: Streptococcus pneumoniae, Mueller-Hinton agar, 10^7 cfu/mℓ, 20 hours at 37°C
Value expressed in µg/mL; do not type the unit.

As a guide, the following entries are already answered.
Tell us which MIC value is on record for CO/N=C(\C(=O)NC1C(=O)N2C(C(=O)O)=C(SCSc3nccc(N)n3)CSC12)c1csc(N)n1 (stereo not shown)
0.25

Tell us which MIC value is on record for CC(C)(O/N=C(\C(=O)N[C@@H]1C(=O)N2C(C(=O)[O-])=C(C[n+]3ccccc3)CS[C@H]12)c1csc(N)n1)C(=O)O [Ceftazidime, reference compound]
8

Continuing:
Tell us which MIC value is on record for CO/N=C(\C(=O)NC1C(=O)N2C(C(=O)O)=C(SCSc3cc(N)nc(N)n3)CSC12)c1csc(N)n1 (stereo not shown)
0.13

Tell us which MIC value is on record for CO/N=C(\C(=O)NC1C(=O)N2C(C(=O)O)=C(SCSc3cc(N)nc(N)n3)CSC12)c1nc(N)sc1Cl (stereo not shown)
0.13

###

Assay: Pharmacokinetic experiment (blood concentration by HPLC)
Type: in vivo, mice
Conditions: male, mouse, blood, po, 20 mg/kg, Oral administration, time 120 min, read-out: blood concentration, mouse-1
reported-metric: concentration at 120 min (ng/mL)
Value expressed in ng/mL; do not type the unit.

Tell us which concentration at 120 min value is on record for CO/N=C(\C(=O)NC1C(=O)N2C(C(=O)O)=C(Sc3cc(N)nc(N)n3)CSC12)c1csc(N)n1 (stereo not shown)
60

###

Assay: Pharmacokinetic experiment (blood concentration by HPLC)
Type: in vivo, mice
Settings: male, mouse, blood, other: injection, 20 mg/kg, Injection, time 20 min, read-out: blood concentration, mouse-2
reported-metric: concentration at 20 min (ng/mL)
Value expressed in ng/mL; do not type the unit.

Tell us which concentration at 20 min value is on record for CO/N=C(\C(=O)NC1C(=O)N2C(C(=O)O)=C(Sc3cc(N)nc(N)n3)CSC12)c1csc(N)n1 (stereo not shown)
12700

###

Assay: Pharmacokinetic experiment (blood concentration by HPLC)
Format: in vivo, mice
Settings: male, mouse, blood, po, 20 mg/kg, Oral administration, time 60 min, read-out: average conc.
reported-metric: concentration at 60 min (ng/mL)
Value expressed in ng/mL; do not type the unit.

Tell us which concentration at 60 min value is on record for CO/N=C(\C(=O)NC1C(=O)N2C(C(=O)O)=C(Sc3cc(N)nc(N)n3)CSC12)c1csc(N)n1 (stereo not shown)
440

###

Experiment: Pharmacokinetic experiment (blood concentration by HPLC)
Format: in vivo, mice
Conditions: male, mouse, blood, po, 20 mg/kg, Oral administration, time 5 min, read-out: average conc.
reported-metric: concentration at 5 min (ng/mL)
Value expressed in ng/mL; do not type the unit.

Tell us which concentration at 5 min value is on record for CO/N=C(\C(=O)NC1C(=O)N2C(C(=O)O)=C(Sc3cc(N)nc(N)n3)CSC12)c1csc(N)n1 (stereo not shown) [Compound No. 25]
90

###

Assay: Pharmacokinetic experiment (blood concentration by HPLC)
Type: in vivo, mice
Conditions: male, mouse, blood, po, 20 mg/kg, Oral administration, time 40 min, read-out: blood concentration, mouse-1
reported-metric: concentration at 40 min (µg/mL)
Value expressed in µg/mL; do not type the unit.

Tell us which concentration at 40 min value is on record for CO/N=C(\C(=O)NC1C(=O)N2C(C(=O)O)=C(Sc3cc(N)nc(N)n3)CSC12)c1csc(N)n1 (stereo not shown) [Compound No. 25]
0.27

###

Assay: Pharmacokinetic experiment (blood concentration by HPLC)
Assay type: in vivo, mice
Conditions: male, mouse, blood, intravenous, 20 mg/kg, Injection, time 1 min, read-out: blood concentration, mouse-1
Protocol: Test example 2: Pharmacokinetic experiment Male mice, each of which has a body weight of […] were used in the present pharmacokinetic experiment. Test compounds were formulated into 1% of solution and then, the solution was administered by oral route and by injection with a dose of 20mg/kg, respectively. […] Concentrations of test compounds in blood were measured by HPLC quantitative analysis and based on the results, pharmacokinetic parameters were calculated.
reported-metric: concentration at 1 min (µg/mL)
Value expressed in µg/mL; do not type the unit.

Tell us which concentration at 1 min value is on record for CO/N=C(\C(=O)NC1C(=O)N2C(C(=O)O)=C(Sc3cc(N)nc(N)n3)CSC12)c1csc(N)n1 (stereo not shown) [Compound No. 25]
120

###

Assay: Pharmacokinetic experiment (blood concentration by HPLC)
Assay type: in vivo, mice
Settings: male, mouse, blood, intravenous, 20 mg/kg, Injection, time 10 min, read-out: blood concentration, mouse-2
reported-metric: concentration at 10 min

Tell us which concentration at 10 min value is on record for CO/N=C(\C(=O)NC1C(=O)N2C(C(=O)O)=C(Sc3cc(N)nc(N)n3)CSC12)c1csc(N)n1 (stereo not shown) [Compound No. 25]
20400 ng/mL

###

Reported values of AUC for individual entries
Test: Pharmacokinetic experiment (blood concentration by HPLC)
Type: in vivo, mice
Conditions: male, mouse, blood; mice; Oral administration, 20mg/kg
Value expressed in ng·h/mL; do not type the unit.

As a guide, the following entries are already answered.
Tell us which AUC value is on record for CO/N=C(\C(=O)NC1C(=O)N2C(C(=O)O)=C(SCc3cnc(N)nc3N)CSC12)c1csc(N)n1 (stereo not drawn)
6320

Tell us which AUC value is on record for C=CC1=C(C(=O)O)N2C(=O)[C@@H](NC(=O)/C(=N\O)c3csc(N)n3)[C@H]2SC1 [Cefdinir, reference compound]
6380

Continuing:
Tell us which AUC value is on record for Nc1cc(SCSC2=C(C(=O)O)N3C(=O)C(NC(=O)/C(=N\O)c4nc(N)sc4Cl)C3SC2)nc(N)n1 (stereo not drawn)
59900

###

Assay: Pharmacokinetic experiment (blood concentration by HPLC)
Assay type: in vivo, mice
Details: male, mouse, blood, po, 20 mg/kg, Oral administration, time 20 min, read-out: blood concentration, mouse-2
reported-metric: concentration at 20 min

Tell us which concentration at 20 min value is on record for CO/N=C(\C(=O)NC1C(=O)N2C(C(=O)O)=C(Sc3cc(N)nc(N)n3)CSC12)c1csc(N)n1 (stereo not shown)
720 ng/mL

###

Experiment: Pharmacokinetic experiment (blood concentration by HPLC)
Type: in vivo, mice
Conditions: male, mouse, blood, po, 20 mg/kg, Oral administration, time 20 min, read-out: blood concentration, mouse-3
Experimental: Test example 2: Pharmacokinetic experiment Male mice, each of which has a body weight of […] were used in the present pharmacokinetic experiment. Test compounds were formulated into 1% of solution and then, the solution was administered by oral route and by injection with a dose of 20mg/kg, respectively. […] Concentrations of test compounds in blood were measured by HPLC quantitative analysis and based on the results, pharmacokinetic parameters were calculated.
reported-metric: concentration at 20 min

Tell us which concentration at 20 min value is on record for CO/N=C(\C(=O)NC1C(=O)N2C(C(=O)O)=C(Sc3cc(N)nc(N)n3)CSC12)c1csc(N)n1 (stereo not shown) [Compound No. 25]
270 ng/mL

###

Assay: Pharmacokinetic experiment (blood concentration by HPLC)
Format: in vivo, mice
Settings: male, mouse, blood, po, 20 mg/kg, Oral administration, time 180 min, read-out: average conc.
reported-metric: concentration at 180 min (ng/mL)
Value expressed in ng/mL; do not type the unit.

Tell us which concentration at 180 min value is on record for CO/N=C(\C(=O)NC1C(=O)N2C(C(=O)O)=C(Sc3cc(N)nc(N)n3)CSC12)c1csc(N)n1 (stereo not shown)
410

###

Assay: Pharmacokinetic experiment (blood concentration by HPLC)
Format: in vivo, mice
Details: male, mouse, blood, other: injection, 20 mg/kg, Injection, time 20 min, read-out: blood concentration, mouse-1
reported-metric: concentration at 20 min (ng/mL)
Value expressed in ng/mL; do not type the unit.

Tell us which concentration at 20 min value is on record for CO/N=C(\C(=O)NC1C(=O)N2C(C(=O)O)=C(Sc3cc(N)nc(N)n3)CSC12)c1csc(N)n1 (stereo not shown)
21600

###

System: Klebsiella aerogenes K1+ 1082E
Assay: MIC against standard strains (agar dilution)
Type: cell-based
Conditions: Klebsiella aerogenes K1+ 1082E; Mueller-Hinton agar, 20 hours at 37°C; read-out: MIC
Reported values of MIC for individual entries

As a guide, the following entries are already answered.
Tell us which MIC value is on record for Nc1cc(SC2=C(C(=O)O)N3C(=O)C(NC(=O)/C(=N\O)c4csc(N)n4)C3SC2)nc(N)n1 (stereo not shown) [compound 26]
> 64 mg/L

Tell us which MIC value is on record for CO/N=C(\C(=O)NC1C(=O)N2C(C(=O)O)=C(Sc3cc(N)nc(N)n3)CSC12)c1csc(N)n1 (stereo not shown) [Compound No. 25]
> 64 mg/L

Tell us which MIC value is on record for CCO/N=C(\C(=O)NC1C(=O)N2C(C(=O)O)=C(Sc3cc(N)nc(N)n3)CSC12)c1csc(N)n1 (stereo not shown) [compound 27]
> 64 mg/L

Continuing:
Tell us which MIC value is on record for CC(C)(O/N=C(\C(=O)N[C@@H]1C(=O)N2C(C(=O)[O-])=C(C[n+]3ccccc3)CS[C@H]12)c1csc(N)n1)C(=O)O [Ceftazidime, reference compound]
0.25 mg/L
